# target-or-system: IKZF1 (dCK*-IKZF1 fusion in HEK293FT)
# assay-notes: inhibition of IKZF1 HTRF signal (DMSO = 0%, pomalidomide 10 uM = 100%); higher = lower IKZF1 protein level
# measurement-parameters: compound concentration: 5 uM, overnight (~20 h)
Structures can show the parent of a compound that is named as a salt.
Listed below: inhibition of IKZF1 HTRF signal values for each entry.
metric: inhibition of IKZF1 HTRF signal (%)

[[record]]
compound = "COc1ccc(NC(=O)c2ccc(-c3ccc(-c4noc(C)n4)cc3C)cc2)cc1N1CCN(C)CC1"
metric = "inhibition of IKZF1 HTRF signal"
reported_value = -35.8

[[record]]
compound = "CCc1c2c(nc3ccc(OC(=O)N4CCC(N5CCCCC5)CC4)cc13)-c1cc3c(c(=O)n1C2)COC(=O)[C@]3(O)CC [Irinotecan HCl]"
metric = "inhibition of IKZF1 HTRF signal"
reported_value = -17.6

[[record]]
compound = "Cc1nc(-c2cccnc2)sc1C(=O)Nc1ccccc1-c1cn2c(CN3CCOCC3)csc2n1"
metric = "inhibition of IKZF1 HTRF signal"
reported_value = 6.43

[[record]]
compound = "CCOC(=O)C1=C[C@]2(CC)CCCN3CCc4c(n1c1ccccc41)[C@@H]32"
metric = "inhibition of IKZF1 HTRF signal"
reported_value = -26.3

[[record]]
compound = "Clc1ccccc1C(c1ccccc1)(c1ccccc1)n1ccnc1 [Clotrimazole]"
metric = "inhibition of IKZF1 HTRF signal"
reported_value = -53.5

[[record]]
compound = "COC1CCN(c2cccc(-c3cc(NC(C)=O)nc(-n4nc(C)cc4C)n3)n2)CC1"
metric = "inhibition of IKZF1 HTRF signal"
reported_value = -25.1

[[record]]
compound = "O=C(/C=C/c1ccc(O)c(O)c1)c1ccc(O)cc1O"
metric = "inhibition of IKZF1 HTRF signal"
reported_value = 8.77

[[record]]
compound = "CCCCCCCCCCCCC[N+](C)(C)Cc1ccccc1"
metric = "inhibition of IKZF1 HTRF signal"
reported_value = 7.81

[[record]]
compound = "COc1ccc2c(C)nc(Nc3nc(C)c(C)c(O)n3)nc2c1"
metric = "inhibition of IKZF1 HTRF signal"
reported_value = -28.1

[[record]]
compound = "CC(C)/N=c1/cc2n(-c3ccc(Cl)cc3)c3ccccc3nc-2cc1Nc1ccc(Cl)cc1"
metric = "inhibition of IKZF1 HTRF signal"
reported_value = 6.09

[[record]]
compound = "CCC1/C=C(\\C)CC(C)CC(OC)C2OC(O)(C(=O)C(=O)N3CCCCC3C(=O)OC(/C(C)=C/C3CCC(O)C(OC)C3)C(C)C(O)CC1=O)C(C)CC2OC (stereo not drawn)"
metric = "inhibition of IKZF1 HTRF signal"
reported_value = 4.12

[[record]]
compound = "Clc1ccc(COC(Cn2ccnc2)c2ccc(Cl)cc2Cl)c(Cl)c1 (stereo not drawn)"
metric = "inhibition of IKZF1 HTRF signal"
reported_value = 20.3

[[record]]
compound = "O=C(Nc1cccc(C(F)(F)F)c1)Nc1ccc(Br)cc1-c1nnn[nH]1"
metric = "inhibition of IKZF1 HTRF signal"
reported_value = -23.4

[[record]]
compound = "C=C1/C(=C\\C=C2/CCC[C@]3(C)[C@@H]([C@H](C)/C=C/[C@H](C)C(C)(C)O)CC[C@@H]23)C[C@@H](O)C[C@@H]1O"
metric = "inhibition of IKZF1 HTRF signal"
reported_value = -35

[[record]]
compound = "COC(=O)Nc1nc2ccc(S(=O)c3ccccc3)cc2[nH]1 (stereo not drawn)"
metric = "inhibition of IKZF1 HTRF signal"
reported_value = 5.34

[[record]]
compound = "Clc1ccc(COC(Cn2ccnc2)c2ccc(Cl)cc2Cl)cc1 (stereo not drawn)"
metric = "inhibition of IKZF1 HTRF signal"
reported_value = -29.1

[[record]]
compound = "CO[C@H]1CC(O[C@@H]2/C(C)=C/C[C@@H]3C[C@@H](C[C@]4(CC[C@H](C)[C@@H](C5CCCCC5)O4)O3)OC(=O)[C@@H]3C=C(C)/C(=N/O)[C@H]4OC/C(=C\\C=C\\[C@@H]2C)[C@]43O)O[C@@H](C)C1O (stereo partly drawn)"
metric = "inhibition of IKZF1 HTRF signal"
reported_value = -24.5

[[record]]
compound = "Oc1cc2c(cc1O)[C@@H]1c3ccc(O)c(O)c3OC[C@]1(O)C2 [Hematoxylin (Hydroxybrazilin)]"
metric = "inhibition of IKZF1 HTRF signal"
reported_value = -6.3

[[record]]
compound = "Cc1cc(C(C)(C)CC(C)(C)C)ccc1OCCOCC[N+](C)(C)Cc1ccccc1"
metric = "inhibition of IKZF1 HTRF signal"
reported_value = -17.4

[[record]]
compound = "Cc1cc([C@H](C(=O)N2C[C@H](O)C[C@H]2C(=O)N[C@@H](CC(=O)N2CCC(C#Cc3ccc(C(=O)N[C@H]4C(C)(C)[C@H](Oc5ccc(C#N)c(Cl)c5)C4(C)C)cc3)CC2)c2ccccc2)C(C)C)on1"
metric = "inhibition of IKZF1 HTRF signal"
reported_value = 9.95

[[record]]
compound = "CC1(C)C(=O)N=C2C1=C(O)C(=O)c1ccccc12"
metric = "inhibition of IKZF1 HTRF signal"
reported_value = 80

[[record]]
compound = "CO/N=C1\\C[C@]2(C[C@@H]3C[C@@H](C/C=C(\\C)C[C@@H](C)/C=C/C=C4\\CO[C@@H]5[C@H](O)C(C)=C[C@@H](C(=O)O3)[C@]45O)O2)O[C@H](/C(C)=C/C(C)C)[C@H]1C"
metric = "inhibition of IKZF1 HTRF signal"
reported_value = -19.4

[[record]]
compound = "O=c1n(CC2CO2)c(=O)n(CC2CO2)c(=O)n1CC1CO1 (stereo not drawn) [Triglycidyl isocyanurate]"
metric = "inhibition of IKZF1 HTRF signal"
reported_value = 30.6


----------
# target-or-system: IKZF1 (dCK*-IKZF1 fusion in HEK293FT) (UniProt Q13422)
# Sequence (Q13422 whole entry, looked up, the tested form may be a part): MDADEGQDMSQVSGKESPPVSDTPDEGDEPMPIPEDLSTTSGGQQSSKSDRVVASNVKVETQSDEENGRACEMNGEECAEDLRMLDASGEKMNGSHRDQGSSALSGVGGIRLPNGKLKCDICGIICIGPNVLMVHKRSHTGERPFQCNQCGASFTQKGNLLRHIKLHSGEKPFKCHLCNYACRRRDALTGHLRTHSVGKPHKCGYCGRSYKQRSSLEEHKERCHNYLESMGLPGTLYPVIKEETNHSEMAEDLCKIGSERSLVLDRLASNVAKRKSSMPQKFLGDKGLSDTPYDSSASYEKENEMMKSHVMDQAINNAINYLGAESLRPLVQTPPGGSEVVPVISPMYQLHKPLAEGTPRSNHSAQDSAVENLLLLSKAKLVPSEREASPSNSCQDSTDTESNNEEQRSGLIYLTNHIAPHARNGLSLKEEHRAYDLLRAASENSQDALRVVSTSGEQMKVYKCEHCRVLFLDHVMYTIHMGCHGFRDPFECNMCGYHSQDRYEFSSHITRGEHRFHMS
# assay-notes: inhibition of IKZF1 HTRF signal (DMSO = 0%, pomalidomide 10 uM = 100%); higher = lower IKZF1 protein level
# measurement-parameters: compound concentration: 5 uM, overnight (~20 h)
Counter-ions that a name gives are not always drawn.
Reported inhibition of IKZF1 HTRF signal values follow for various molecules
metric: inhibition of IKZF1 HTRF signal

[[record]]
molecule = "CCC1(O)CC2CN(CCc3c([nH]c4ccccc34)[C@@](C(=O)OC)(c3cc4c(cc3OC)N(C=O)C3[C@]45CCN4CC=C[C@@](CC)([C@@H](OC(C)=O)[C@]3(O)C(=O)OC)[C@H]45)C2)C1 (stereo partly specified) [Vincristine sulfate]"
reported_value = "-23.3%"

[[record]]
molecule = "OCCN=CCNc1ccc(NCCNCCO)c2c(O)c3c(O)ccc(O)c3c(O)c12 [Mitoxantrone HCl]"
reported_value = "-45.5%"

[[record]]
molecule = "CNCCC(Oc1ccc(C(F)(F)F)cc1)c1ccccc1 (stereo unspecified)"
reported_value = "-36.8%"

[[record]]
molecule = "O=S(=O)(O)CCSSCCS(=O)(=O)O"
reported_value = "-1.7%"

[[record]]
molecule = "Oc1c(I)cc(Cl)c2cccnc12"
reported_value = "-2.15%"

[[record]]
molecule = "O=C(OOC(=O)c1ccccc1)c1ccccc1"
reported_value = "-35.6%"


----------
Recorded inhibition of IKZF1 HTRF signal, one value per entry.
# target-or-system: IKZF1 (dCK*-IKZF1 fusion in HEK293FT)
# assay-notes: inhibition of IKZF1 HTRF signal (DMSO = 0%, pomalidomide 10 uM = 100%); higher = lower IKZF1 protein level
# measurement-parameters: compound concentration: 5 uM, overnight (~20 h)
metric: inhibition of IKZF1 HTRF signal (%)

[[record]]
compound = "CCCCC1OC(=O)c2ccccc21 (centres undefined) [Butylphthalide]"
metric = "inhibition of IKZF1 HTRF signal"
reported_value = -30.6

[[record]]
compound = "O=C(Nc1cnc(Cl)nc1)c1ccc(F)c(F)c1"
metric = "inhibition of IKZF1 HTRF signal"
reported_value = -25.3

[[record]]
compound = "NC(=O)N1c2ccccc2CC(=O)c2ccccc21"
metric = "inhibition of IKZF1 HTRF signal"
reported_value = 17.9

[[record]]
compound = "Cc1cccc(C)c1NC(=O)C(C)N (centres undefined) [Tocainide]"
metric = "inhibition of IKZF1 HTRF signal"
reported_value = 20.5

[[record]]
compound = "N#Cc1ccc(O[C@H]2CC[C@H](NC(=O)c3ccc(N4CCC(CN5CCN(c6cc7c(cc6F)C(=O)N(C6CCC(=O)NC6=O)C7=O)CC5)CC4)nn3)CC2)cc1Cl (some centres undefined)"
metric = "inhibition of IKZF1 HTRF signal"
reported_value = -5.24

[[record]]
compound = "Cc1nnsc1C(=O)Nc1ccc(-n2nc(C(F)(F)F)cc2C(F)(F)F)cc1"
metric = "inhibition of IKZF1 HTRF signal"
reported_value = -28.9

[[record]]
compound = "O=C(Nc1ccc(F)cc1)N1CCc2ccccc2C1c1ccc(C(F)(F)F)cc1 (centres undefined)"
metric = "inhibition of IKZF1 HTRF signal"
reported_value = -25.5

[[record]]
compound = "CCCCCCCCCCCCCCCC[N+](C)(C)Cc1ccccc1 [Benzyldimethylhexadecylammonium chloride hydrate]"
metric = "inhibition of IKZF1 HTRF signal"
reported_value = 20.2

[[record]]
compound = "Cc1ccc2c(=O)c3ccccc3n(CCCN)c2c1C"
metric = "inhibition of IKZF1 HTRF signal"
reported_value = -12.2

